// provenance: ChEMBL document CHEMBL4152357

assay-system: Multidrug efflux pump LfrA (Mycobacterium smegmatis (strain ATCC 700084 / mc(2)155)) (UniProt A0R5K5)
Sequence (whole entry): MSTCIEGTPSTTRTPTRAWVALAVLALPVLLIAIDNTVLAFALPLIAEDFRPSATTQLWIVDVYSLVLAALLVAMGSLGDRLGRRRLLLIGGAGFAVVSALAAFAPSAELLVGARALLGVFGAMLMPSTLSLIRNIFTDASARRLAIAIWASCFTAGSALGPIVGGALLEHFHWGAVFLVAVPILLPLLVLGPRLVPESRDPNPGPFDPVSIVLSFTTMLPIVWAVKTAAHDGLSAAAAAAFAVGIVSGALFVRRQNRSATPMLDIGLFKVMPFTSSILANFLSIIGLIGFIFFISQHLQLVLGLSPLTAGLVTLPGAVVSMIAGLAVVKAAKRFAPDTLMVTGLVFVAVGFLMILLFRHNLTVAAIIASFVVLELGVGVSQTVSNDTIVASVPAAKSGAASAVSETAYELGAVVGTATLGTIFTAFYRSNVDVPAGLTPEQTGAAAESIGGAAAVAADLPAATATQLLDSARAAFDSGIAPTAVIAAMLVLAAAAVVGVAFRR
assay-procedure: Inhibition of LfrA in Mycobacterium smegmatis MC2 155 ATCC 700084 assessed as decrease in EtBr MIC at 100 ug/ml after 72 hrs by MTT assay relative to control
condition-context: Mycolicibacterium smegmatis MC2 155
# reported fractional inhibitory concentration index (FICI); entries follow
Just the number.

- O=c1c2ccccc2nc2c(F)cc(F)cn12: 0.5
- O=c1c2cccc(Cl)c2nc2c(Cl)cccn12: 0.56
- O=c1c2cccc(Cl)c2nc2c3ccccc3ccn12: 1
- Cc1ccn2c(=O)c3cccc(F)c3nc2c1: 0.62
- O=c1c2cccc(Cl)c2nc2ccc(F)cn12: 0.62
- O=c1c2ccccc2nc2ccccn12: 0.62
- Cc1cccn2c(=O)c3ccccc3nc12: 0.62
- Cc1cccn2c(=O)c3cccc(Cl)c3nc12: 0.62

Now look at this entry.
For the molecule O=c1c2ccc(Cl)cc2nc2ccccn12 , what fractional inhibitory concentration index (FICI) is on record?
0.62

* * *

assay-system: Multidrug efflux pump LfrA (Mycobacterium smegmatis (strain ATCC 700084 / mc(2)155)) (UniProt A0R5K5)
assay-procedure: Inhibition of LfrA in Mycobacterium smegmatis MC2 155 ATCC 700084 assessed as decrease in norfloxacin MIC at 12.5 ug/ml after 72 hrs by MTT assay relative to control
condition-context: Mycolicibacterium smegmatis MC2 155
measurement-type: fold change (FC)

For the molecule O=c1c2ccc(F)cc2nc2ccccn12 , what fold change (FC) is on record?
2

* * *

assay-system: Multidrug efflux pump LfrA (Mycobacterium smegmatis (strain ATCC 700084 / mc(2)155)) (UniProt A0R5K5)
assay-procedure: Inhibition of LfrA in Mycobacterium smegmatis MC2 155 ATCC 700084 assessed as increase in EtBr accumulation at 25 ug/ml measured every 5 mins for 35 mins by fluorometric analysis
condition-context: Mycolicibacterium smegmatis MC2 155
The source made the active and inactive calls. No cut-off for these calls is given here.
Outcomes you can answer with include only these: active, inactive

Dear all, I need the recorded test outcome for O=c1c2cccc(Cl)c2nc2ccc(F)cn12 , thank you.
active

Dear all, I need the recorded test outcome for Cc1cccn2c(=O)c3ccccc3nc12 , thank you.
active

Dear all, I need the recorded test outcome for Cc1ccn2c(=O)c3cccc(F)c3nc2c1 , thank you.
active

Dear all, I need the recorded test outcome for O=c1c2ccccc2nc2c(F)cc(F)cn12 , thank you.
active
